# Target of assay: E-selectin (Homo sapiens)
# Construct: fused on or other part: Immunoglobulin (Ig) part fused on as a handle for immobilising and dimerising
# Sequence (P16581 22-175 limits assumed): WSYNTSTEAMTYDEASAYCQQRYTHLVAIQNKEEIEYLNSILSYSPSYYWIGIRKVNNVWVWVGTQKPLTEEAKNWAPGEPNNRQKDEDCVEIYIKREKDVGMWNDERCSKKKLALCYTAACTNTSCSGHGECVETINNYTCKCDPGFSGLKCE
# Test name: E-selectin activity competitive binding assay (sLe^a polyacrylamide / streptavidin-HRP conjugate)
# Test parameters: immobilized E-selectin/Ig chimera; concentration required to inhibit sLe^a binding by 50%; absorbance 450 nm
# Excerpt: An inhibition assay may be used to screen for antagonists of E-selectin. […] Variations of such steps can be readily and routinely accomplished by a person of ordinary skill in the art. The inhibition assay to screen and characterize glycomimetic antagonists of E-selectin is a competitive binding assay, from which IC50 values may be determined. […]
Observation type: IC50 (µM)
Quick reminder: number only, in µM, skip the unit.

Given the entry CC1O[C@@H](OC2[C@H](C)CCC[C@H]2O[C@@H]2OC(CO)[C@H](O)C3O[C@@H](C(=O)O)CCCCOC32)[C@@H](O)C(O)[C@@H]1O (stereo partly shown) [Compound 18a] , report its measured IC50.
15.2

Given the entry CC1O[C@@H](OC2[C@H](C)CCC[C@H]2O[C@@H]2OC(CO)[C@H](O)C3O[C@@H](C(=O)O)CCCOC32)[C@@H](O)C(O)[C@@H]1O (stereo partly shown) , report its measured IC50.
15.8

Given the entry CC[C@@H]1CCC[C@@H](O[C@@H]2OC(CO)[C@H](O)C3O[C@@H](C(=O)O)CCCOC32)C1O[C@@H]1OC(C)[C@@H](O)C(O)[C@@H]1O (stereo partly shown) , report its measured IC50.
3.8

Given the entry CC[C@@H]1CCC[C@@H](O[C@@H]2OC(CO)[C@H](O)C3O[C@@H](C(=O)O)CCCCOC32)C1O[C@@H]1OC(C)[C@@H](O)C(O)[C@@H]1O (stereo partly shown) , report its measured IC50.
7.3

// data source = patent US20160333043A1
